SYSTEM: HLA-B*44:05 (Homo sapiens, UniProt P01889, A223V/A65T/A93T/A95T/D201E/D98Y/E176V/E187L/E204Q/E69K/G107R/H137Y/K202T/L105A/L119I/N104T/N87E/Q56L/Q94N/R106L/R155S/R180D/S101N/S121R/S35A/S48T/T118I/V36M/W191S/Y91S)
ASSAY INFO: MHC binding assay, UV-ligand exchange ELISA
TEST SETTINGS: peptide exchange yield, binding to HLA-B*44:05
MEASUREMENT KIND: Peptide exchange

Known results for substances:
INSERT INTO assay_data (substance, assay_value) VALUES
  ('141 (REVAGASAL; listed as Homo sapiens) [compound 141]', '+++ (50% = +++)'),
  ('36 (KEIEAQEAA; listed as Homo sapiens) [compound 36]', '++++ (75% = ++++)'),
  ('58 (REQLDGATL; listed as Homo sapiens) [compound 58]', '++++ (75% = ++++)'),
  ('117 (GEAAAARPV; listed as Homo sapiens) [compound 117]', '+++ (50% = +++)');

Per the records, this substance ( 48 (TEMSVSALY; listed as Homo sapiens) [compound 48] ) has Peptide exchange equal to ++++ (75% = ++++)

Per the records, this substance ( 139 (EEGRIITKW; listed as Homo sapiens) [compound 139] ) has Peptide exchange equal to ++++ (75% = ++++)

Per the records, this substance ( 206 (VEGVHFVQLL; listed as Homo sapiens) [compound 206] ) has Peptide exchange equal to ++++ (75% = ++++)

Per the records, this substance ( 168 (AEGPDHHSL; listed as Homo sapiens) [compound 168] ) has Peptide exchange equal to ++++ (75% = ++++)

Per the records, this substance ( 84 (KEFAFLEHSL; listed as Homo sapiens) [compound 84] ) has Peptide exchange equal to ++++ (75% = ++++)
